Source of measurements: patent US11512090B2

The entries below are paired with their reported IC50.
# tested_target: UniProtKB P08172
# Sequence (P08172 whole entry): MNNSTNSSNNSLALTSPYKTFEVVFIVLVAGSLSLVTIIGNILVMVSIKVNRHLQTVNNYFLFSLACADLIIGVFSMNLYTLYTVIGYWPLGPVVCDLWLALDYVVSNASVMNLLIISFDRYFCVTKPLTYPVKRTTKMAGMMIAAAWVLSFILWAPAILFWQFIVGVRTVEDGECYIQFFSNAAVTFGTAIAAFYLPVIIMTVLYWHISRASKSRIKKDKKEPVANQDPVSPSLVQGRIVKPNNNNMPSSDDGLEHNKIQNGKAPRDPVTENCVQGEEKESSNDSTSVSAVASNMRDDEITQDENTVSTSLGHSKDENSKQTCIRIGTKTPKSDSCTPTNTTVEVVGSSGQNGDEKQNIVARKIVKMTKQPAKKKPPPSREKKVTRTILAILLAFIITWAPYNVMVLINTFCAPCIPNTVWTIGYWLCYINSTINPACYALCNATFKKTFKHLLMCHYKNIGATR
# assay_procedure: In vitro functional assay of muscarinic acetylcholine receptor activity, M2
# Format: cell-based
# test_conditions: antagonist IC50 at M2; read-out: M2 IC50
# Description: [The procedure below names another target; the source lists this target under the same test.] CHO-K1 cells stably expressing human M1 receptor with Aequorin (Perkin Elmer) were grown in F12 media, 10% FBS with 0.4 mg/mL geneticin and […]. Cells were grown to confluence and frozen down to be assayed at a later date. […] Calcium flux was measured using the FlexStation 3 (Molecular Devices). […] Antagonist activity was analyzed as a concentration dependent decrease in the EC80 acetylcholine response. […] The IC50 of the compounds was calculated from the dose response curve.

Examples with their reported IC50 follow.
Cc1cc(F)cnc1N1CCN(C(=O)CNCc2cccc3ncccc23)[C@@H](C)C1: 1 to 10 µM
Cc1cc(F)cnc1N1CCN(C(=O)CCCc2cccc3ncccc23)[C@H](C)C1: 0.1 to 1 µM

Which IC50 value belongs to N#Cc1ccc(N2C3CCC2CN(C(=O)[C@H]2C[C@H](Oc4cccc5ncsc45)C2)C3)nc1 ?
> 10 µM

Which IC50 value belongs to C[C@H]1CN(c2ncc(F)cc2F)CCN1C(=O)CCCc1cccc2ncccc12 ?
1 to 10 µM

---

# tested_target: UniProtKB P11229
# Sequence (P11229 1-460): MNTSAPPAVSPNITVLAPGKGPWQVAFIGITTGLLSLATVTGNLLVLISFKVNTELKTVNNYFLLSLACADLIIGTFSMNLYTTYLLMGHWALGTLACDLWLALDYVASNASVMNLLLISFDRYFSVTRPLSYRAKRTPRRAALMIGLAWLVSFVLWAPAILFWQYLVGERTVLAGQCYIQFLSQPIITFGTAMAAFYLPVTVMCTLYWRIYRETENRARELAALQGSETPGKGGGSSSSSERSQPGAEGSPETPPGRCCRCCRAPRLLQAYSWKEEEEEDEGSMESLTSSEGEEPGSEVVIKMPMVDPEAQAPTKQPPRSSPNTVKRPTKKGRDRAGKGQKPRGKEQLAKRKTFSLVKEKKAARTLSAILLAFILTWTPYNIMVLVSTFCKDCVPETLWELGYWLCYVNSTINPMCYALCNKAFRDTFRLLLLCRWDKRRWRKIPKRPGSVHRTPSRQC
# assay_procedure: In vitro functional assay of muscarinic acetylcholine receptor activity (aequorin calcium flux, antagonist mode vs EC80 acetylcholine), M1
# Format: cell-based
pIC50: −log10 of the molar value.
endpoint: pIC50

O=C(CCS(=O)(=O)c1cccc2nccn12)N1CC2CCC(C1)N2c1ccc(Cl)cn1: > 7.00

Notebook: pull reported pIC50 for UniProtKB P11229, entry N#Cc1ccc(N2C3CCC2CN(C(=O)CCS(=O)(=O)c2cccc4ncsc24)C3)nc1
> 7.00

Notebook: pull reported pIC50 for UniProtKB P11229, entry N#Cc1ccc(N2[C@@H]3CC[C@H]2CN(C(=O)COCc2cccc4nccnc24)C3)nc1
> 7.00

Notebook: pull reported pIC50 for UniProtKB P11229, entry N#Cc1ccc(N2C3CCC2CN(C(=O)CCOCc2cccc4c2OCO4)C3)nc1
6.00 to 7.00

Notebook: pull reported pIC50 for UniProtKB P11229, entry N#Cc1ccc(N2C3COCC2CN(C(=O)CCCc2cccc4ncccc24)C3)nc1
> 7.00

Notebook: pull reported pIC50 for UniProtKB P11229, entry Cc1nc2cccc(CNCCC(=O)N3CC4CCC(C3)N4c3ccc(C#N)cn3)n2n1
6.00 to 7.00

Notebook: pull reported pIC50 for UniProtKB P11229, entry O=C(CCOCc1cccc2ncccc12)N1C[C@H]2CC[C@@H](C1)N2c1ccc(F)cn1
6.00 to 7.00

Notebook: pull reported pIC50 for UniProtKB P11229, entry N#Cc1ccc(C2=CC3CCC(C2)N3C(=O)CCS(=O)(=O)c2cccc3ncsc23)nc1 (centres unmarked)
6.00 to 7.00

---

# tested_target: M3 (Homo sapiens, UniProt P20309)
# Sequence (P20309 whole entry): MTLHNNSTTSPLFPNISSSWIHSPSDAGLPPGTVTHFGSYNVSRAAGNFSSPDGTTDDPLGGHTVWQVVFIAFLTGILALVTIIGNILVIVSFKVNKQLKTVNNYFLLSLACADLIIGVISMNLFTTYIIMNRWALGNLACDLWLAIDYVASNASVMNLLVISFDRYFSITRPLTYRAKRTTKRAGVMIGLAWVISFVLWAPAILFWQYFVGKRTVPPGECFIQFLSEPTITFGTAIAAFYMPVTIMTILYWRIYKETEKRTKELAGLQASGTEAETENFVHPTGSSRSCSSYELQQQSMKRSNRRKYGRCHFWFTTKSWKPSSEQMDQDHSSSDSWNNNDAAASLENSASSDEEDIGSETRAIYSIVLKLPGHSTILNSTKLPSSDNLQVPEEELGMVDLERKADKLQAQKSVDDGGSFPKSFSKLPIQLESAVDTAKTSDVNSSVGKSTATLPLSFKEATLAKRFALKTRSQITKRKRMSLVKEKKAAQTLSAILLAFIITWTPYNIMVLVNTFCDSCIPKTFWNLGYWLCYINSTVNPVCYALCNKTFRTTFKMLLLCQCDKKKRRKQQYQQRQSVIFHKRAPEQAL
# assay_procedure: In vitro functional assay of muscarinic acetylcholine receptor activity, M3
# Assay type: cell-based
# test_conditions: antagonist IC50 at M3; read-out: M3 IC50
# Method: [The procedure below names another target; the source lists this target under the same test.] CHO-K1 cells stably expressing human M1 receptor with Aequorin (Perkin Elmer) were grown in F12 media, 10% FBS with 0.4 mg/mL geneticin and […]. Cells were grown to confluence and frozen down to be assayed at a later date. […] Calcium flux was measured using the FlexStation 3 (Molecular Devices). […] Antagonist activity was analyzed as a concentration dependent decrease in the EC80 acetylcholine response. […] The IC50 of the compounds was calculated from the dose response curve.
endpoint: IC50

Examples with their reported IC50 follow.
N#Cc1ccc(N2C3CCC2CN(C(=O)[C@H]2C[C@H](Oc4cccc5ncsc45)C2)C3)nc1: > 10 µM
CN(CCC(=O)N1CC2CCC(C1)N2c1ccc(C#N)cn1)Cc1cccc2ncnn12: 1 to 10 µM
N#Cc1ccc(N2C3CCC2CN(C(=O)COCc2cccn4ncnc24)C3)nc1: > 10 µM
C[C@H]1CN(c2ccc(C#N)cn2)CCN1C(=O)CCS(=O)(=O)c1cccc2ncsc12: 1 to 10 µM
Cc1cc(F)cnc1N1CCN(C(=O)CCCc2cccc3nc(N)sc23)[C@@H](C)C1: 1 to 10 µM

Please find the next compound below.
Which IC50 value belongs to N#Cc1ccc(N2C3COCC2CN(C(=O)CCS(=O)(=O)c2cccc4ncsc24)C3)nc1 ?
> 10 µM

---

# tested_target: human M1 receptor (Homo sapiens)
# Sequence (P11229 1-460): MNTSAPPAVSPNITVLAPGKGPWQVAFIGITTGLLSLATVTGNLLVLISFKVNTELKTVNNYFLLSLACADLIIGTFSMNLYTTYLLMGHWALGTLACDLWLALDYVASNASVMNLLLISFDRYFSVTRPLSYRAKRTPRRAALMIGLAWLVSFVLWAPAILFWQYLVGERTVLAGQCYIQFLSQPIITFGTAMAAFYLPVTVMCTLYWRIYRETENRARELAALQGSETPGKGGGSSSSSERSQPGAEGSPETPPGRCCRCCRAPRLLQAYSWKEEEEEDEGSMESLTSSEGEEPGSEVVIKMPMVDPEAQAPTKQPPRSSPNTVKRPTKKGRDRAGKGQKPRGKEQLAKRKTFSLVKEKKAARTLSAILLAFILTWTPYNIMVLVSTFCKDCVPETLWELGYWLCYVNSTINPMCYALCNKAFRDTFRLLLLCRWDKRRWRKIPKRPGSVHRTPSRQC
# assay_procedure: In vitro functional assay of muscarinic acetylcholine receptor activity (aequorin calcium flux, antagonist mode vs EC80 acetylcholine), M1
# Assay type: cell-based
# test_conditions: CHO-K1 cells stably expressing human M1 receptor with Aequorin; decrease in EC80 acetylcholine response; read-out: M1 IC50
The entries below are paired with their reported IC50.

Examples with their reported IC50 follow.
Cc1cc(F)cnc1N1CCN(C(=O)COCc2cccc3ncccc23)[C@@H](C)C1: 1 to 10 µM
C[C@@H]1CN(c2ccc(F)c(C#N)c2)CCN1C(=O)CCCc1cccc2ncccc12: < 0.1 µM

Notebook: pull reported IC50 for human M1 receptor (Homo sapiens), entry Cc1cc(F)cnc1N1CC(C)N(C(=O)CCS(=O)(=O)c2cccc3ncsc23)C(C)C1 (stereo not drawn)
< 0.1 µM

Notebook: pull reported IC50 for human M1 receptor (Homo sapiens), entry Cc1cc(Cl)cnc1N1CCN(C(=O)CCCc2cccc3ncccc23)[C@H](C)C1
< 0.1 µM

Notebook: pull reported IC50 for human M1 receptor (Homo sapiens), entry N#Cc1ccc(N2C3CCC2CN(C(=O)CCN(Cc2cccc4ncnn24)C2CCC2)C3)nc1
1 to 10 µM

Notebook: pull reported IC50 for human M1 receptor (Homo sapiens), entry N#Cc1cnccc1N1CCN(C(=O)CCCc2cccc3ncccc23)CC1
1 to 10 µM

---

The entries below are paired with their reported IC50.
# tested_target: M3 (Homo sapiens, UniProt P20309)
# assay_procedure: In vitro functional assay of muscarinic acetylcholine receptor activity, M3
# Type: cell-based
# test_conditions: antagonist IC50 at M3; read-out: M3 IC50

N#Cc1ccc(N2C3CCC2CN(C(=O)C(F)(F)CNCc2cccc4ncsc24)C3)nc1: 1 to 10 µM
Nc1cc(N2CCN(C(=O)CCS(=O)(=O)c3cccc4ncsc34)CC2)c(Cl)cn1: > 10 µM
Cc1cc(C#N)ncc1N1CCN(C(=O)CCNCc2c(F)ccc3nccn23)[C@@H](C)C1: > 10 µM
Cc1cc(C#N)ncc1N1CCN(C(=O)CCS(=O)(=O)c2cccc3ncsc23)[C@@H](C)C1: > 10 µM
O=C(COCCc1cccc2ncccc12)N1C[C@H]2CC[C@@H](C1)N2c1ccncc1F: > 10 µM
Cc1ccc2ncccc2c1COCCC(=O)N1CC2CCC(C1)N2c1ccc(C#N)cn1: 1 to 10 µM
O=C(COCCc1cccn2ncnc12)N1CC2CCC(C1)N2c1ccc(Cl)cn1: > 10 µM
CC1CN(c2ccc(F)cn2)CCN1C(=O)[C@H]1C[C@H](Oc2cccc3ncsc23)C1 (stereo partly shown): > 10 µM
CC1CN(c2ccc(F)cn2)CCN1C(=O)CCCc1cccc2ncccc12 (stereo not shown): 1 to 10 µM
Cc1cc(F)cnc1N1CCN(C(=O)CCCc2cccc3nccn23)[C@@H](C)C1: > 10 µM

Which IC50 value belongs to Cc1nc2cccc(S(=O)(=O)CCC(=O)N3CCN(c4ccc(C(F)(F)F)cn4)CC3)c2o1 ?
> 10 µM

Which IC50 value belongs to N#Cc1ccc(N2[C@@H]3CC[C@H]2CN(C(=O)[C@H]2C[C@H](Nc4cccc5ncccc45)C2)C3)nc1 ?
> 10 µM

Which IC50 value belongs to C[C@H]1CN(c2cnc(C(F)(F)F)nc2)CCN1C(=O)CCS(=O)(=O)c1cccc2ncsc12 ?
1 to 10 µM
